- Test system: C. alb (SC5314)
- protocol description: In vitro antifungal assay
- Assay type: cell-based
- run parameters: Candida albicans, SC5314, read-out: MIC80 C. alb (SC5314)
Would you kindly list MIC80 for each of these compounds?
Give bare numbers, in µg/mL.

Enquiry: Give recorded MIC80 with C. alb (SC5314) for the following compound: O=C(Nc1ccc2[nH]ccc2c1)c1ccc(COC(Cn2ccnc2)c2ccc(Cl)cc2Cl)cc1 (centres unmarked)
Return: 128

Give MIC80 for all compounds that follow.
1. O=C(Nc1ccccc1)c1ccc(COC(Cn2ccnc2)c2ccc(Cl)cc2Cl)cc1 (centres unmarked)
2. O=C(Nc1ccc(C(F)(F)F)cc1)c1ccc(COC(Cn2ccnc2)c2ccc(Cl)cc2Cl)cc1 (centres unmarked)
3. O=C(Nc1cccc(Cl)c1)c1ccc(COC(Cn2ccnc2)c2ccc(Cl)cc2Cl)cc1 (centres unmarked)
4. O=C(Nc1ccc2ccccc2c1)c1ccc(COC(Cn2ccnc2)c2ccc(Cl)cc2Cl)cc1 (centres unmarked)

Return:
1: 0.125; 2: 0.06; 3: 0.03; 4: 32

----------
- protocol description: Metabolic stability assay of liver microsomes
- Format: in vitro ADME
- run parameters: mouse
Assign microsomal CLint to each entry below.
Answer format: value, then unit.

Below: 2 compounds and their reported microsomal CLint.
Enquiry: Record request: microsomal CLint value, item OC(Cn1cncn1)(Cn1cncn1)c1ccc(F)cc1F [Fluconazole, fluconazole, reference compound]
Return: 2 µL/min/mg

Enquiry: # query: microsomal CLint of entry O=C(Nc1ccc(F)cc1F)c1ccc(COC(Cn2ccnc2)c2ccc(Cl)cc2Cl)cc1 (stereo not drawn) [A11]
Return: 89.4 µL/min/mg

Further cases:
Enquiry: May I ask what microsomal CLint has been recorded for Clc1ccc(COC(Cn2ccnc2)c2ccc(Cl)cc2Cl)c(Cl)c1 (stereo not drawn) [Miconazole, miconazole] ?
Return: 660 µL/min/mg

----------
- Tested on: MRC-5 cells
- protocol description: Cytotoxicity assay on normal cells
- Type: cell-based, human
- run parameters: Homo sapiens, MRC5, 72 h, read-out: IC50 on MRC-5 cell lines
measure: IC50

Examples from the recorded data:
Enquiry: Data request, read-out IC50, for O=C(Nc1ccc2cccnc2c1)c1ccc(COC(Cn2ccnc2)c2ccc(Cl)cc2Cl)cc1 (stereo not drawn)
Return: > 100 µM

Enquiry: Quick check: IC50 of O=C(Nc1ccc2[nH]ccc2c1)c1ccc(COC(Cn2ccnc2)c2ccc(Cl)cc2Cl)cc1 (stereo not drawn) ?
Return: > 100 µM

Then there is this compound:
Enquiry: State the recorded IC50 for this entry: O=C(Nc1cccc(Br)c1)c1ccc(COC(Cn2ccnc2)c2ccc(Cl)cc2Cl)cc1 (stereo not drawn)
Return: > 100 µM

----------
Provide the reported MIC80 of each item.
- System: C. neo
- protocol description: In vitro antifungal assay
- Type: cell-based
- run parameters: Cryptococcus neoformans, read-out: MIC80 C. neo
Express the reported value numerically, then name its unit.

Sample answers from the record:
Enquiry: Sample Cc1ccc(NC(=O)c2ccc(COC(Cn3ccnc3)c3ccc(Cl)cc3Cl)cc2)cc1 (stereo not shown) — what was its MIC80?
Return: 0.25 µg/mL

Enquiry: Need MIC80 of O=C(Nc1ccc(F)cc1)c1ccc(COC(Cn2ccnc2)c2ccc(Cl)cc2Cl)cc1 (stereo not shown) , thanks.
Return: 0.5 µg/mL

Enquiry: # input compound: O=C(Nc1ccc2ccccc2c1)c1ccc(COC(Cn2ccnc2)c2ccc(Cl)cc2Cl)cc1 (stereo not shown) ; wanted: its MIC80
Return: 32 µg/mL

Switching to the query record.
Enquiry: Would you mind telling me what MIC80 value was observed for OC(Cn1cncn1)(Cn1cncn1)c1ccc(F)cc1F [Fluconazole, fluconazole, reference compound] ?
Return: 8 µg/mL

----------
Assignment: determine reported MIC80 for the given molecules.
- System: Strain 632
- protocol description: Antifungal activity against fluconazole-resistant strain
- Format: cell-based
- run parameters: Candida albicans, 632, read-out: MIC80 Strain 632
Answers are plain numbers, in µg/mL.

Enquiry: Which MIC80 is reported with Strain 632 for this entry: O=C(Nc1ccc(Cl)cc1)c1ccc(COC(Cn2ccnc2)c2ccc(Cl)cc2Cl)cc1 (centres unmarked) ?
Return: 4

Please supply MIC80 for each of the following items, keeping them in order.
1. O=C(Nc1ccc2cccnc2c1)c1ccc(COC(Cn2ccnc2)c2ccc(Cl)cc2Cl)cc1 (centres unmarked)
2. O=C(Nc1cccc(F)c1)c1ccc(COC(Cn2ccnc2)c2ccc(Cl)cc2Cl)cc1 (centres unmarked)
3. O=C(Nc1ccc(Br)cc1)c1ccc(COC(Cn2ccnc2)c2ccc(Cl)cc2Cl)cc1 (centres unmarked)
4. O=C(Nc1ccc2[nH]ccc2c1)c1ccc(COC(Cn2ccnc2)c2ccc(Cl)cc2Cl)cc1 (centres unmarked)

Return:
[8, 4, 4, 128]

----------
- protocol description: Plasma stability assay
- run parameters: male, SD, rat
Can you tell me remaining at 3 h for the items I'm about to list?
Give bare numbers, in %.

// solved cases for remaining at 3 h follow
Enquiry: Any idea what its remaining at 3 h is? The compound is O=C(Nc1ccc(F)cc1F)c1ccc(COC(Cn2ccnc2)c2ccc(Cl)cc2Cl)cc1 (stereo not drawn)
Return: 73.9

Enquiry: Dear colleague, I am looking for the recorded remaining at 3 h of the following compound: Clc1ccc(COC(Cn2ccnc2)c2ccc(Cl)cc2Cl)c(Cl)c1 (stereo not drawn)
Return: 94.9

Attention now shifts to the item below.
Enquiry: Requested read-out: remaining at 3 h. Entry: OC(Cn1cncn1)(Cn1cncn1)c1ccc(F)cc1F [Fluconazole, fluconazole, reference compound]
Return: 102

----------
- Test system: C. neo
- protocol description: In vitro antifungal assay
- Assay type: cell-based
- run parameters: Cryptococcus neoformans, read-out: MIC80 C. neo
measure: MIC80 (µg/mL)
One number for each entry, in µg/mL.

Provide MIC80 values for the following items, in order.
1. O=C(Nc1cccc(Cl)c1)c1ccc(COC(Cn2ccnc2)c2ccc(Cl)cc2Cl)cc1 (stereo not drawn) [A09]
2. O=C(Nc1ccc(Br)cc1)c1ccc(COC(Cn2ccnc2)c2ccc(Cl)cc2Cl)cc1 (stereo not drawn) [A04]

Return:
0.125
0.25

----------
- Tested on: C. alb (SC5314)
- protocol description: In vitro antifungal assay
- Assay type: cell-based
- run parameters: Candida albicans, SC5314, read-out: MIC80 C. alb (SC5314)
Doc: threshold 0.06 µg/mL (exclusive). Items with MIC80 beneath it return Fulfilled; others return Not fulfilled.

Enquiry: Dear colleague, could you confirm whether MIC80 of O=C(Nc1ccc(F)cc1)c1ccc(COC(Cn2ccnc2)c2ccc(Cl)cc2Cl)cc1 (stereo not drawn) falls below 0.06 µg/mL? Thanks.
Return: Not fulfilled

Enquiry: hey, is MIC80 for O=C(Nc1cccc(Br)c1)c1ccc(COC(Cn2ccnc2)c2ccc(Cl)cc2Cl)cc1 (stereo not drawn) lower than 0.06 µg/mL or not?
Return: Not fulfilled

Enquiry: Is the reported MIC80 for O=C(Nc1cccc2ccccc12)c1ccc(COC(Cn2ccnc2)c2ccc(Cl)cc2Cl)cc1 (stereo not drawn) strictly below 0.06 µg/mL?
Return: Not fulfilled

Enquiry: Lab note: confirm whether the reported MIC80 for this compound is below 0.06 µg/mL, equality not counting. compound: Cc1ccc(NC(=O)c2ccc(COC(Cn3ccnc3)c3ccc(Cl)cc3Cl)cc2)cc1 (stereo not drawn)
Return: Fulfilled

Continuing:
Enquiry: Given the entry O=C(Nc1ccc2cccnc2c1)c1ccc(COC(Cn2ccnc2)c2ccc(Cl)cc2Cl)cc1 (stereo not drawn) , would its reported MIC80 be below 0.06 µg/mL?
Return: Not fulfilled

Enquiry: Just wondering, is MIC80 of Clc1ccc(COC(Cn2ccnc2)c2ccc(Cl)cc2Cl)c(Cl)c1 (stereo not drawn) below 0.06 µg/mL?
Return: Not fulfilled

Enquiry: Input OC(Cn1cncn1)(Cn1cncn1)c1ccc(F)cc1F [Fluconazole, fluconazole, reference compound] ; condition: MIC80 strictly below 0.06 µg/mL. Does it hold?
Return: Not fulfilled

Enquiry: Lab note: confirm whether the reported MIC80 for this compound is below 0.06 µg/mL, equality not counting. compound: O=C(Nc1ccc(Cl)cc1)c1ccc(COC(Cn2ccnc2)c2ccc(Cl)cc2Cl)cc1 (stereo not drawn)
Return: Not fulfilled

Enquiry: Please determine if O=C(Nc1ccc(F)cc1F)c1ccc(COC(Cn2ccnc2)c2ccc(Cl)cc2Cl)cc1 (stereo not drawn) is below 0.06 µg/mL in terms of MIC80.
Return: Fulfilled

----------
- Test system: C. neo
- protocol description: In vitro antifungal assay
- Type: cell-based
- run parameters: Cryptococcus neoformans, read-out: MIC80 C. neo
Would you kindly list MIC80 for each of these compounds?
Give bare numbers, in µg/mL.

Solved entries:
Enquiry: Query MIC80 on C. neo for Clc1ccc(COC(Cn2ccnc2)c2ccc(Cl)cc2Cl)c(Cl)c1 (stereo not shown) [Miconazole, miconazole]
Return: 0.125

Enquiry: // map COc1ccc(NC(=O)c2ccc(COC(Cn3ccnc3)c3ccc(Cl)cc3Cl)cc2)cc1 (stereo not shown) [A07] to recorded MIC80 (system: C. neo)
Return: 0.25

Enquiry: Report MIC80 for O=C(Nc1ccc2cccnc2c1)c1ccc(COC(Cn2ccnc2)c2ccc(Cl)cc2Cl)cc1 (stereo not shown) [A12] tested on C. neo.
Return: 4

---
Enquiry: What measured MIC80 is associated with O=C(Nc1ccc(Cl)cc1)c1ccc(COC(Cn2ccnc2)c2ccc(Cl)cc2Cl)cc1 (stereo not shown) [A03] on C. neo?
Return: 0.06

All figures here come from paper PMC11962866.
